Tested on: SUIT-2 (Pancreatic Carcinoma)
Test Details: combination Emax (second highest fraction inhibited in the dose matrix, 72 h); higher = more inhibition; extreme values may be limits of the assay
We use 0.5 as the dividing line for combination Emax: on or above the line is Y, below is N.

Worked examples follow.
Cn1cnc2c(F)c(Nc3ccc(Br)cc3Cl)c(C(=O)NOCCO)cc21 [Selumetinib] + C[C@@H]1COCCN1C2=NC(=NC(=C2)C3(CC3)[S@](=N)(=O)C)C4=C5C=CNC5=NC=C4 [AZD6738] (first compound max 10 µM, 7x7, partner max 10 µM)
N
CC(=O)Nc1cccc(-n2c(=O)n(C3CC3)c(=O)c3c(Nc4ccc(I)cc4F)n(C)c(=O)c(C)c32)c1 [Trametinib] + Cc1nc(-c2cn3c(n2)-c2ccc(-c4cnn(C(C)(C)C(N)=O)c4)cc2OCC3)n(C(C)C)n1 [Taselisib] (first compound max 1 µM, 7x7, partner max 10 µM)
Y
Cc1c2c(nn1C)CSCc1cc(n(C)n1)CSc1cc(c3ccccc3c1)OCCCc1c(C(=O)O)n(C)c3c-2c(Cl)ccc13 [AZD5991] + Cc1cc2ncnn2cc1Nc1ncc2c(n1)n(C1CCOCC1)c(=O)n2C [AZD7648] (first compound max 1 µM, 7x7, partner max 10 µM)
N
COc1cccc(OCCCN)c1-c1cc(Nc2cnc(C#N)cn2)n[nH]1 [Prexasertib] + C=CCn1c(=O)c2cnc(Nc3ccc(N4CCN(C)CC4)cc3)nc2n1-c1cccc(C(C)(C)O)n1 [AZD1775] (first compound max 1 µM, partner max 1 µM)
Y
Cn1cnc2c(F)c(Nc3ccc(Br)cc3Cl)c(C(=O)NOCCO)cc21 [Selumetinib] + CCN(CCO)CCCOc1ccc2c(Nc3cc(CC(=O)Nc4cccc(F)c4)[nH]n3)ncnc2c1 [AZD2811] (first compound max 10 µM, 7x7, partner max 1 µM)
N

// query Does combination Emax meet or surpass 0.5 for NC1(C(=O)N[C@@H](CCO)c2ccc(Cl)cc2)CCN(c2ncnc3[nH]ccc23)CC1 [Capivasertib] + CCN(CCO)CCCOc1ccc2c(Nc3cc(CC(=O)Nc4cccc(F)c4)[nH]n3)ncnc2c1 [AZD2811] (first compound max 10 µM, 7x7, partner max 1 µM) ?
// result N

====

Tested on: MFH-ino (Other Solid Carcinomas)
Test Details: combination Emax (second highest fraction inhibited in the dose matrix, 72 h); higher = more inhibition; extreme values may be limits of the assay
Observable: combination Emax
Give bare numbers.

CC1(C)CCC(CN2CCN(c3ccc(C(=O)NS(=O)(=O)c4ccc(NCC5CCOCC5)c([N+](=O)[O-])c4)c(Oc4cnc5[nH]ccc5c4)c3)CC2)=C(c2ccc(Cl)cc2)C1 [Venetoclax] + C[C@@H](Nc1cc(F)cc(F)c1)c1cc(C(=O)N(C)C)cc2c(=O)cc(N3CCOCC3)oc12 [AZD8186] (first compound max 1 µM, 7x7, partner max 3 µM)
0.0981

Could you report combination Emax for every entry in the following list?
1. COc1cc2ncnc(Nc3ccc(F)c(Cl)c3)c2cc1OCCCN1CCOCC1 [Gefitinib] + CC(C)n1c(=O)n(C)c2cnc3cc(F)c(-c4ccc(OCCCN5CCCCC5)nc4)cc3c21 [AZD1390] (first compound max 10 µM, 7x7, partner max 0.3 µM)
2. CC1(C)CCC(CN2CCN(c3ccc(C(=O)NS(=O)(=O)c4ccc(NCC5CCOCC5)c([N+](=O)[O-])c4)c(Oc4cnc5[nH]ccc5c4)c3)CC2)=C(c2ccc(Cl)cc2)C1 [Venetoclax] + Cc1cc2ncnn2cc1Nc1ncc2c(n1)n(C1CCOCC1)c(=O)n2C [AZD7648] (first compound max 1 µM, 7x7, partner max 10 µM)

// result
1. 0
2. 0.318

Could you report combination Emax for every entry in the following list?
1. COc1cc2c(cc1OCCCCCOc1cc3c(cc1OC)C(=O)N1C=C(C)C[C@H]1C=N3)N=C[C@@H]1CC(C)=CN1C2=O [SG3199] + O=C(c1cc(Cc2n[nH]c(=O)c3ccccc23)ccc1F)N1CCN(C(=O)C2CC2)CC1 [Olaparib] (first compound max 0.001 µM, 7x7, partner max 10 µM)
2. Cc1nc(-c2cn3c(n2)-c2ccc(-c4cnn(C(C)(C)C(N)=O)c4)cc2OCC3)n(C(C)C)n1 [Taselisib] + O=C(Nc1ccc2[nH]nc(-c3ccncc3)c2c1)[C@@H]1CCN(CC(=O)N2CCN(c3ccc(-c4ncccn4)cc3)CC2)C1 [SCH772984] (first compound max 10 µM, 7x7, partner max 5 µM)
3. C[C@@H](c1ccc2nccn2c1)n1nnc2ncc(-c3cnn(C)c3)nc21 [Savolitinib] + CC1(C)CCC(CN2CCN(c3ccc(C(=O)NS(=O)(=O)c4ccc(NCC5CCOCC5)c([N+](=O)[O-])c4)c(Oc4cnc5[nH]ccc5c4)c3)CC2)=C(c2ccc(Cl)cc2)C1 [Venetoclax] (first compound max 1 µM, 7x7, partner max 1 µM)
4. C[C@@H]1COCCN1c1cc(C2([S@](C)(=N)=O)CC2)nc(-c2ccnc3[nH]ccc23)n1 [AZD6738] + C1CC(C1)(C(=O)[O-])C(=O)[O-].N.N.[Pt+2] [Carboplatin] (first compound max 10 µM, 7x7, partner max 10 µM)

// result
1: 0.134; 2: 0.659; 3: 0.171; 4: 0.468
